Test system: MS2 coat protein
Assay Procedure: apparent Kd, MS2 coat protein; higher = weaker binding; RNA-MaP array; FMN 200 µM where present
Stated Conditions: ligand present: flavin mononucleotide; designed as: OFF switch for flavin mononucleotide
Provide the reported apparent Kd of each item.
The response must be a number in nM with no trailing unit.

[in] State the recorded apparent Kd for this entry: `GAUCCUUCUGUUAGGAUAUGCUUUGGGCUUUCGCAGCAGAAGGAACAUGAGGAUCACCCAUGUCCGAUGCCGUC`
[out] 81.3

[in] Dear colleague, I am looking for the recorded apparent Kd of the following sequence: `UGGGAACGAGGAUAUCGAUGGUGGAACAUGAGGAUCACCCAUGUAUGAGAUAGUGUAGUUCGAGAAGGCGUUAAGU`
[out] 33.8

[in] Consider the sequence `GCAGACUUGCUGAAGGUGUUCCACAUGAGGAUCACCCAUGUCAAGGAUAUAACGCGUCCGGCCCGUUAGAAGGUGACAGUUUGC` and give its measured apparent Kd.
[out] 229

[in] Reported apparent Kd, sequence `UGAUAGCACAGAGGAUAUGCGUAGUGUUAUCUCUACAUGAGGAUCACCCAUGUAGAAGGCUGUGCUAUCUAAGUCGGAAACGAC` : ____
[out] 9.9

[in] Which apparent Kd value belongs to `GUGUACAGAGGAUAUACAUGAGCAUGGAAACAUGCAUCCUCACAUGAGGAUCACCCAUGUAGAAGGCUGUACAC` ?
[out] 31.6

[in] Could you tell me which apparent Kd is on file for `UGUCGGAGCAGAGGAUAUUACAUGAGGAUCACCCAUGUAUGAACCAAUAGCUGGAAACAGCAAUGUAAGAAGGGUGCUCCGACA` ?
[out] 13.2

[in] Query (sequence): `CUGUGAUGGAUCCAGAAUUACAACAUGAGGAUCACCCAUGUGCAGGAUAUCGGGUUGAUAGGCGCCGAGAAGGGUAUAAUCACG` ; field requested: apparent Kd
[out] 105

---

Test system: MS2 coat protein
Assay Procedure: apparent Kd, MS2 coat protein; higher = weaker binding; RNA-MaP array
Stated Conditions: designed as: OFF switch for flavin mononucleotide; no ligand
Test Readout: apparent Kd (nM)
# output: bare number, implied unit nM

[in] Sample `UCACACGUUGUAGGAUAUGUCACGCAUAGAACAUGAGGAUCACCCAUGUAUCCCUGUCAUGCCAGACAGAAGGACACUAACGCG` — what was its apparent Kd?
[out] 55.5

[in] What value of measured apparent Kd is listed for `UCUUCCCGCUUAGGAUAUCUUGCUAAUUUGUGUAGAGAAGGAAGUGUAAACAUGAGGAUCACCCAUGUGGCCUCCAGAUAAAGC` ?
[out] 12.1

[in] Quick check: apparent Kd of `CGGGUGUAGACAGGAUAUGCAAAUAAAGGUGAAGCAGAAGGGUCACAUGAGGAUCACCCAUGUCACUAAAUUGGCGGUAUAAGA` ?
[out] 39

[in] Request the reported apparent Kd associated with `UGACUGGUCGGAGGAUAUGGCAACACGUUUUCGCCAGAAGGCCGACAUGAGGAUCACCCAUGUGGGACACUAGGGCGACUUCCU`
[out] 166

[in] Entry `CUUAUGAUCGAGGAUAUCACAAAUGGGCAGCGUUGAGAAGGCGACACAUGAGGAUCACCCAUGUAAUCAACAGU` has what apparent Kd?
[out] 18.4

[in] Would you mind telling me what apparent Kd value was observed for `UUUGAGGCAGGAUAUAACAUCUUUGACAUGAGGAUCACCCAUGUGGUGUCCCGGUUUUAAUUAGAAGGGCCAGGCU` ?
[out] 692

[in] Fill in: apparent Kd of `GUCAUGUUAGGAUAUACACGUACCCGCCGACAGCCAGCAAUGUAGAAGGAACAUGAGGAUCACCCAUGUCGUGG` is ___
[out] 15.2

[in] Reported apparent Kd, sequence `CGAGUGUGAGGAUAUCAGUUCAAUAGGGCUACGCCGUGUCGUGAGAAGGCACAUGAGGAUCACCCAUGUAAUAA` : ____
[out] 58.3

[in] Record request: apparent Kd value, item `AUGAGCUGAGGAUAUAUUAACCUGUACAUGAGGAUCACCCAUGUAGCGUGUAGAGUGAGAAUAGAAGGCAGACAUC`
[out] 17.2

[in] Which apparent Kd value is on record for `AUAAGUAUAGGAUAUACAGGUAAGCGUUCUUACCGAUCCAGACAUGAGGAUCACCCAUGUAGAAGGAUACGUCU` ?
[out] 8.18

[in] Any idea what apparent Kd was measured for `CGUUAGCAGUAGAAGGUAGCCGGCAGGUCAGGGCGACCACAUGAGGAUCACCCAUGUCUAUGUUCUAAGGAUAUACUGACCCAA` ?
[out] 5.2

[in] Can you share its apparent Kd? I mean this sequence: `CAUCCUCUUUGACAUGAGGAUCACCCAUGUAUUGCAGUGACCAGAAGGCGUUCCCACAAAGUGGACGAGGAUAUGGAAAAGCCG`
[out] 193

[in] Returns the measured apparent Kd for the input sequence. Input: `GAGAGAUAAGGAUAUCCACAACGGGACAUGAGGAUCACCCAUGUACCCUCAUUCCUCGCAGGAGAAGGUAUCAUGU`
[out] 22.4

[in] Fill in: apparent Kd of `GACAGGACGACAUGAGGAUCACCCAUGUGUUAGCGUGGAUAGCAGGAUAUAUUAUUUAGACUCGGAUAGAAGGGCUCGGACCUA` is ___
[out] 18.3

[in] Please give the measured apparent Kd for this sequence: `UGCGCGAGAGGAUAUUAUCGUAACUACAUGAGGAUCACCCAUGUUUCGCCCGUAGCUGGAUAAGAAGGCUCGAGUG`
[out] 14.6

[in] Can you look up the measured apparent Kd of `GUUGGACAUGAGGAUCACCCAUGUGAAUUGUUUUCCACGUACUAGGAUAUCGCGGGACAAACCAUCGAGAAGGAGUCGACCUAA` for me?
[out] 14.4

[in] Query: apparent Kd; subject: `GCACGGCUAGAGAAGGGAAGGUGGAAGAGAUGUGAGGGACAUGAGGAUCACCCAUGUCUUACGAUUCAGGAUAUCUGAGAGGCU`
[out] 10.2

[in] Given `AAAGGCGUAGGAUAUACAUGAGGAUCACCCAUGUAUCACAAUAACGAGGAAUGAAAGUGUAGAAGGACGAUAAC` , state its recorded apparent Kd.
[out] 7.48

[in] Given `UUGUGUUCUUAGGAUAUACAACUUACCAUCAGAGUAGAAGGAAGGACAUGAGGAUCACCCAUGUGGGCUAGCAG` , state its recorded apparent Kd.
[out] 154

[in] Value lookup for apparent Kd; key = `UGCAGGCGAACAGGAUAUCACACAUGAGGAUCACCCAUGUAAACUACUUAAGAAAGGGAGCCUCGUGAGAAGGGUUUCUUUGGG`
[out] 74.6

[in] # apparent Kd lookup, item `UUGGUCCACAGACAUGAGGAUCACCCAUGUAGUAGUUGAAUGAGAAGGGCACUGGCUUGUCAGGUGCAGGAUAUCAGUCUAUGU`
[out] 118

[in] So what's the measured apparent Kd for this one? `CAGUGAAGAGGAUAUACAUGAGGAUCACCCAUGUACCGUGGUCCAUAUCAUAAUUCGAGUAGAAGGCUUAACCA`
[out] 114

[in] Request the reported apparent Kd associated with `GGAUUUGAUCCAGGAUAUUAACAAUCCUCAGAUCAAAAUACAUGAGGAUCACCCAUGUACUCAAAUAAGAAGGGGAUGGCGGCC`
[out] 25.7

---

System: MS2 coat protein
Assay Procedure: apparent Kd, MS2 coat protein; higher = weaker binding; RNA-MaP array; FMN 200 µM where present
Stated Conditions: designed as: ON switch for flavin mononucleotide; no ligand
Can you tell me apparent Kd for the items I'm about to list?
Hey, just the number and the unit after it is fine.

[in] // returns reported apparent Kd for input `GACAUGAGGAUCACCCAUGUCCAACCAGAAGGCCAGGAAUCGGACCCGAGUAUCGGGUUCGAGAUGGAGGAUAUGGGCGCCGAA`
[out] 75.1 nM

[in] Look up apparent Kd for this sequence: `UGCAAAAUUGCAACAUGAGGAUCACCCAUGUCUGGGUUGGCCAAGGAUAUGCUUCUAAUCCUAGUGCAGAAGGUGGAAACUCAU`
[out] 201 nM

[in] Looking for the measured apparent Kd of `GCUAUCGAACAGAAGGGACCGCGGCCGUGGCGGUCAGGAUAUGUAUGCAGUAGUGCCUACAUGAGGAUCACCCAUGUCCGCCGC` , can you help?
[out] 629 nM

[in] Any idea what its apparent Kd is? The sequence is `GACCCUAAUGAGAAGGUGUGUAUAAAUUAUAUACAAGGAUAUCGGUCGAGCGUGUUGACAUGAGGAUCACCCAUGUUGAGGGUU`
[out] 26.8 nM

[in] Query (sequence): `AACAUGAGGAUCACCCAUGUACGCUGUAAUUACUCGCGUUGGCAGGAUAUGGGUUGGCUUCCGUCCCAGAAGGGUCAAGAUAAA` ; field requested: apparent Kd
[out] 253 nM

[in] Query (sequence): `AGUAAGAUGCAGAAGGUGUCAGCGAGAGCUGCGACAUGAGGAUCACCCAUGUACACGUGAGUGUACAAGGAUAUGCAUCUUACA` ; field requested: apparent Kd
[out] 1090 nM

[in] For the sequence `AAAAAAAAAAGUGAGGAUAUGGGAAAAUUAACAUGAGGAUCACCCAUGUGAUAAAAAAAAAAAAACCAGAAGGUACAAAAAAAAAA` , what apparent Kd is on record?
[out] 69.5 nM

[in] Tell me the measured apparent Kd of `GGUCCAUCAUGAGGAUAUGGCACCUUAUUGGUGCCAGAAGGCAUGUGUAUACACAUGAGGAUCACCCAUGUAAUAAAUUGGACC` , please.
[out] 144 nM

[in] // lookup apparent Kd for `GUGCACACUCGAGGAUAUCGGAGUUUUCUUCUUUGAGAAGGCGAUUCGUGCCGUGUUAUUUUGGACAUGAGGAUCACCCAUGUG`
[out] 66 nM

[in] Reported apparent Kd, sequence `AUGCAGCCACCACAGGAUAUACGUGGAUCGACAUGAGGAUCACCCAUGUAUAUCCUAAUAAUUGCGUAGAAGGGUGGUCGGCUGG` : ____
[out] 555 nM

[in] Quick one: apparent Kd of `GGAGACCUCACAGGAUAUGCUGGACUUUGUCCAGCAGAAGGGUGGACAUGAGGAUCACCCAUGUGGUCUUCCAAAAUAUUUAAU` ?
[out] 728 nM

[in] Value lookup for apparent Kd; key = `AGGCCGCUACGCCGGCUUCACGCACAGGAUAUGCAGUUACAUGAGGAUCACCCAUGUGGCCAUGUGCAGAAGGGUGGUUCGUGA`
[out] 22.1 nM

[in] Fill in the blank: the reported apparent Kd of `GGUCGUCACAUUAACAUGAGGAUCACCCAUGUCAAAAGACAUGAGGAUAUGCAUCCUAAUUGGAUGCAGAAGGCAUGGACGACC` is ____.
[out] 507 nM

[in] Requested read-out: apparent Kd. Entry: `GCGCUUAUACAGAAGGCCAUAUACAUGAGGAUCACCCAUGUUAUUUGGUGGAGGAUAUGUUUUUUAUUACAGGUUGAUGAGCGC`
[out] 7.58 nM

[in] Return reported apparent Kd; argument: `GUAGCUAUCGGAGGAUAUUCAUACUGGAAACGGACAUGAGGAUCACCCAUGUGGCGAAAGCCUUGGGAGAAGGUCGAUAGCUAC`
[out] 177 nM

[in] Bench note: what apparent Kd did `AAUUCAAACAGAGGAUAUUGUUUAUCUCUAUUGCAAGAAGGCUGAUCUUACUACUUACUUAUGAAACAUGAGGAUCACCCAUGU` show?
[out] 36.6 nM
